These measurements were taken from patent US20240351977A1.

System: FoxP3^+/TIM3^+ CD4 T-cells
Test Description: In vitro dose-response analysis in murine T-cells (splenocytes, flow cytometry)
Type: cell-based, C57BL/6 mice
Condition Context: Mus musculus, T-cell; increase in percent FoxP3+/TIM3+ CD4 T-cells, 72 hours, 30:70 drug:DMPC liposomes, 4-parameter model, Emax fixed to 7.9%; read-out: EC50 mean (SE)
I'd be grateful if you could share measured pEC50 for these entries.
Numbers only, as −log10 of the molar value.

{"Compound": "CCCCCCCCCCCCCCCCCC(=O)NC[C@H](N)C(=O)O [Compound 2, (S)-2-amino-3-stearamidopropanoic acid]", "Quantitative Result": 4.84}

CCCCCCCCCCCCCCCCOC(=O)NC[C@H](N)C(=O)O yielded pEC50 of 4.87
